Each entry below carries its reported PBM binding z-score.
Test system: THRa homodimer (NR concentration 90 nM)
Assay: PBM binding z-score (relative to random genomic background probes); higher = stronger binding; sequences stand for … in GC…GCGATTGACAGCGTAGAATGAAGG
Lab note: record the figure alone, no unit after it.

Task: Look up and report PBM binding z-score, with THRa homodimer (NR concentration 90 nM) as system, for ACTATTAGTTGCCTTAGGGCAACCGATACGACGC
Output: 0.815

Task: Give reported PBM binding z-score for GGAACGAGGGCAAAGTTAATAGCATCTGTCGACG (THRa homodimer (NR concentration 90 nM))
Output: -0.176

Task: Return reported PBM binding z-score for target or system THRa homodimer (NR concentration 90 nM), item CCTATTAGTTGACCTTAAGGGCAACCGAAGCTCG .
Output: 5.34

More entries:
Task: Name the value of PBM binding z-score reported for GGAACGAGGGCATTCGAGTTGAGAGCATGGCGAT when tested on THRa homodimer (NR concentration 90 nM).
Output: -0.815

Task: Return reported PBM binding z-score for target or system THRa homodimer (NR concentration 90 nM), item GCTCGGAGGACTAGGTCAGAGCTTTGTCCGTAGA .
Output: -0.465

Task: # return PBM binding z-score of CCTGCTGGGTCATGGTCAGCTAATCTACAGTATG (system: THRa homodimer (NR concentration 90 nM))
Output: 0.0617

FYI, the data here is from the supplement of paper PMC6555819.
